Quick list: pKd per entry.
Target: T1, Dimeric Monkey Ang-2FD conjugated to human IgG1 (monkey (Macca fascicularis); human)
T1 construct: also called Monkey Ang-2FD-hFc
T1 sequence (chain, as listed by the source limits assumed): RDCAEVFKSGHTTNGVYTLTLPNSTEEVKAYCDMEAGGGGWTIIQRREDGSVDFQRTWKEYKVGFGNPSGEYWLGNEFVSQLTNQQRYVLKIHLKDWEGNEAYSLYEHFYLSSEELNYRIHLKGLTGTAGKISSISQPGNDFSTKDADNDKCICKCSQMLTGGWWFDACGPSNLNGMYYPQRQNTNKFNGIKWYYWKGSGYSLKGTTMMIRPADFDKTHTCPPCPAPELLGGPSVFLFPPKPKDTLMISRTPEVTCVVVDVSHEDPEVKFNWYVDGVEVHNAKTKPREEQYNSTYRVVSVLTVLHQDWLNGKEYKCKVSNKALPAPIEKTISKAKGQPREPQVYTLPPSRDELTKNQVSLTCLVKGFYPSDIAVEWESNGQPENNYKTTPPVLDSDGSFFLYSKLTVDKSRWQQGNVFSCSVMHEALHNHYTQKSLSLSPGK
Test: SPR, captured Ab, RT
pKd: −log10 of the molar value.
Attribute measured: pKd

>>> assay_value("H1H728N (antibody, V domains shown) VH: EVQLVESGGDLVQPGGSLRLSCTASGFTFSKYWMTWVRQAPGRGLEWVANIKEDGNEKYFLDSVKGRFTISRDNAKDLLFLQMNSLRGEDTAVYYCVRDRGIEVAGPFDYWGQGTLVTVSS VL: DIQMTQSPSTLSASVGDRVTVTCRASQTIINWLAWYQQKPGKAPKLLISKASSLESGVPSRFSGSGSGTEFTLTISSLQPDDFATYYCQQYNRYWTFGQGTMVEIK")
8.70
>>> assay_value("H1H732N (antibody, V domains shown) VH: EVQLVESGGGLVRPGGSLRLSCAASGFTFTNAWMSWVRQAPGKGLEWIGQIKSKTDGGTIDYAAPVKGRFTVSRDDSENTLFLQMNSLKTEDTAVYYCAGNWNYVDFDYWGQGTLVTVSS VL: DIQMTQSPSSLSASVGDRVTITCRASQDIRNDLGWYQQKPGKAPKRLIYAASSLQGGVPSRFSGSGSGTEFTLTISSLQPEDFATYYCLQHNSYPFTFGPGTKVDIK")
9.36
>>> assay_value("H2M742N (antibody, V domains shown) VH: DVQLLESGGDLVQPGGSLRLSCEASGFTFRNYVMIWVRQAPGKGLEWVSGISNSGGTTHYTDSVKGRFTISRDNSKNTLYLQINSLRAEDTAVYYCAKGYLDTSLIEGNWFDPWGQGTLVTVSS VL: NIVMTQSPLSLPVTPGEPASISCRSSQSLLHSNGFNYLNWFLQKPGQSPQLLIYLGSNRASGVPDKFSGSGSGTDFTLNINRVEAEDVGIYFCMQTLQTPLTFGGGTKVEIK")
8.21
>>> assay_value("H1H690P (antibody, V domains shown) VH: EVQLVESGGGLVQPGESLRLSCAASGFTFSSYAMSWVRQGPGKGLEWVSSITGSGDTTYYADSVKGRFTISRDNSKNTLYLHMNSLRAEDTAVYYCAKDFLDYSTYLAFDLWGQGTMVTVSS VL: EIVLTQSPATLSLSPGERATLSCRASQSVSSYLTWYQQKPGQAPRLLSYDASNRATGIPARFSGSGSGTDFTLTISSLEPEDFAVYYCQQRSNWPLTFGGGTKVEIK")
10.25
>>> assay_value("H1M732N (antibody, V domains shown) VH: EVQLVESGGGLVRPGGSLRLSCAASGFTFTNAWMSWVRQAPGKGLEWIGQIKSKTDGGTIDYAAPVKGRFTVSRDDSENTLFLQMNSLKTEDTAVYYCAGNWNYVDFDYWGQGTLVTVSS VL: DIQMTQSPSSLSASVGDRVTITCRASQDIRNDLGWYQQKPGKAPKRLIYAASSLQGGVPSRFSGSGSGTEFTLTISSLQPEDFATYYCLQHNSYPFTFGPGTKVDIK")
8.13
>>> assay_value("H1H706P (antibody, V domains shown) VH: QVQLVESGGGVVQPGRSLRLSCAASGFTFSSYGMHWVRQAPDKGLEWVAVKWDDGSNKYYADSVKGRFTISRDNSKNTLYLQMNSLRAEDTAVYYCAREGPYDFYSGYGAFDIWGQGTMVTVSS VL: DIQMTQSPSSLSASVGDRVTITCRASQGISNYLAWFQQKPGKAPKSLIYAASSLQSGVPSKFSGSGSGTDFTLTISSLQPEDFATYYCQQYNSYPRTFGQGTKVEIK")
9.79
>>> assay_value("H1M728N (antibody, V domains shown) VH: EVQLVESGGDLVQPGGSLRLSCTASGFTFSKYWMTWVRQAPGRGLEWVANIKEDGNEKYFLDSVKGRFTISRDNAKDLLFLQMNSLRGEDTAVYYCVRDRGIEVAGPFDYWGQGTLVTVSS VL: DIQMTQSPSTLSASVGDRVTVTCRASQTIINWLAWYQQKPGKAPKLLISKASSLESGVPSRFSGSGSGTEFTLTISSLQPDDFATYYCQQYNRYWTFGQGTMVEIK")
8.80
>>> assay_value("H1H749N (antibody, V domains shown) VH: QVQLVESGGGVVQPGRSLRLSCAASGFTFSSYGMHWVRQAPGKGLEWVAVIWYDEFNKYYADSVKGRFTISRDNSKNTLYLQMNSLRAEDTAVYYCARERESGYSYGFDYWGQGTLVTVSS VL: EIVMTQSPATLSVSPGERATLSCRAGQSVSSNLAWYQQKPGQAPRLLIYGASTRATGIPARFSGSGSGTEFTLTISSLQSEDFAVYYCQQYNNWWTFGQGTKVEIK")
9.39
>>> assay_value("H1H742N (antibody, V domains shown) VH: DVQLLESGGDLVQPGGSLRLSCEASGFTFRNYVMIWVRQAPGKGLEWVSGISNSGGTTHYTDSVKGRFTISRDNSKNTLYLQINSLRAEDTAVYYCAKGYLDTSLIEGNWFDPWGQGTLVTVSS VL: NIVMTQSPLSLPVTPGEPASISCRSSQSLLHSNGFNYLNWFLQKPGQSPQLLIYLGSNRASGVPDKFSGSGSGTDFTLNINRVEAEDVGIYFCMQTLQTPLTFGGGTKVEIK")
9.17
>>> assay_value("H1H743N (antibody, V domains shown) VH: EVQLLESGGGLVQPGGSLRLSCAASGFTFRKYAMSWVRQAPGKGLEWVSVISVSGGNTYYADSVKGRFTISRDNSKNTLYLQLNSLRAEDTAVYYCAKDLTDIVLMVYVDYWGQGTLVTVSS VL: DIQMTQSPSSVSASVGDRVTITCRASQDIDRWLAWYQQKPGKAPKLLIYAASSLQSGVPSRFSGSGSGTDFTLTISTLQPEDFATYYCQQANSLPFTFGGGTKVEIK")
10.02
